molecular target: Thromboxane A2 receptor (Oryctolagus cuniculus); test: Ability to inhibit U-46,619-induced contraction of isolated strips of rabbit thoracic aorta, which is the measure of thromboxane receptor antagonism; conditions: read-out: pA2 (converted)
attribute.measured: Kb (µM)

CC1(C)OC[C@@H](C/C=C\CCCC(=O)O)[C@@H](c2ccccc2)O1 :: 0.501
O=C(O)CCC/C=C\C[C@@H]1COCO[C@@H]1c1ccccc1 :: 0.501
